# protocol.notes: Drug uptake in mouse colon 26 cell mitochondria assessed as color overlay at 0.25 to 2 uM after 4 to 24 hrs in dark by mitotracker red dye-based confocal microscopic analysis
# Type: ADME
# condition.parameters: colon 26, 2 µM

{"compound": "CCCCCCOC(C)c1c(C)c2cc3nc(c4c5[nH]c(cc6nc(cc1[nH]2)C(C)=C6CC)c(C)c5C(=O)C4)[C@@H](CCC(=O)NCCCCCCNC(=O)c1cccc(SC2=C(/C=C/C4=[N+](CCCCS(=O)(=O)[O-])c5ccc6ccccc6c5C4(C)C)CCC/C2=C\\C=C2\\N(CCCCS(=O)(=O)O)c4ccc5ccccc5c4C2(C)C)c1)[C@@H]3C (stereo partly drawn)", "Drug uptake": "Active"}
{"compound": "CCCCCCOC(C)c1c(C)c2cc3nc(c4c5[nH]c(cc6nc(cc1[nH]2)C(C)=C6CC)c(C)c5C(=O)C4)[C@@H](CCC(=O)NCCCCCCNC(=O)c1ccc(SC2=C(/C=C/C4=[N+](CCCCS(=O)(=O)[O-])c5ccc6ccccc6c5C4(C)C)CCC/C2=C\\C=C2\\N(CCCCS(=O)(=O)O)c4ccc5ccccc5c4C2(C)C)cc1)[C@@H]3C (stereo partly drawn)", "Drug uptake": "Active"}
{"compound": "CCCCCCOC(C)c1c(C)c2cc3nc(c4c5[nH]c(cc6nc(cc1[nH]2)C(C)=C6CC)c(C)c5C(=O)C4)[C@@H](CCC(=O)NCCNC(=O)c1cccc(SC2=C(/C=C/C4=[N+](CCCCS(=O)(=O)[O-])c5ccc6ccccc6c5C4(C)C)CCC/C2=C\\C=C2\\N(CCCCS(=O)(=O)O)c4ccc5ccccc5c4C2(C)C)c1)[C@@H]3C (stereo partly drawn)", "Drug uptake": "Active"}

====

Measured Ratio of individual entries
# protocol.notes: Ratio of drug uptake in tumor to skin in Balb/c mouse implanted with mouse Colon 26 cells at 0.3 umol/kg, iv after 24 hrs by reflectance spectroscopic analysis
# Type: ADME, organism-based
# condition.parameters: in vivo
measured.quantity: Ratio

{"molecule": "CCCCCCOC(C)c1c(C)c2cc3nc(c4c5[nH]c(cc6nc(cc1[nH]2)C(C)=C6CC)c(C)c5C(=O)C4)[C@@H](CCC(=O)NCCNC(=O)c1cccc(SC2=C(/C=C/C4=[N+](CCCCS(=O)(=O)[O-])c5ccc6ccccc6c5C4(C)C)CCC/C2=C\\C=C2\\N(CCCCS(=O)(=O)O)c4ccc5ccccc5c4C2(C)C)c1)[C@@H]3C (stereo partly drawn)", "measured.quantity": "Ratio", "recorded.measurement": 2.5}
{"molecule": "CCCCCCOC(C)c1c(C)c2cc3nc(c4c5[nH]c(cc6nc(cc1[nH]2)C(C)=C6CC)c(C)c5C(=O)C4)[C@@H](CCC(=O)NCCCCNC(=O)c1cccc(SC2=C(/C=C/C4=[N+](CCCCS(=O)(=O)[O-])c5ccc6ccccc6c5C4(C)C)CCC/C2=C\\C=C2\\N(CCCCS(=O)(=O)O)c4ccc5ccccc5c4C2(C)C)c1)[C@@H]3C (stereo partly drawn)", "measured.quantity": "Ratio", "recorded.measurement": 6.5}
{"molecule": "CCCCCCOC(C)c1c(C)c2cc3nc(c4c5[nH]c(cc6nc(cc1[nH]2)C(C)=C6CC)c(C)c5C(=O)C4)[C@@H](CCC(=O)NCCCCNC(=O)c1ccc(SC2=C(/C=C/C4=[N+](CCCCS(=O)(=O)[O-])c5ccc6ccccc6c5C4(C)C)CCC/C2=C\\C=C2\\N(CCCCS(=O)(=O)O)c4ccc5ccccc5c4C2(C)C)cc1)[C@@H]3C (stereo partly drawn)", "measured.quantity": "Ratio", "recorded.measurement": 10}

====

# protocol.notes: Ratio of drug uptake in tumor to skin in Balb/c mouse implanted with mouse Colon 26 cells at 0.3 umol/kg, iv after 24 hrs by reflectance spectroscopic analysis
# Format: ADME, organism-based
# condition.parameters: in vivo
Measured Ratio accompanies every entry in the list below.

{"compound": "CCCCCCOC(C)c1c(C)c2cc3nc(c4c5[nH]c(cc6nc(cc1[nH]2)C(C)=C6CC)c(C)c5C(=O)C4)[C@@H](CCC(=O)NCCNC(=O)c1ccc(SC2=C(/C=C/C4=[N+](CCCCS(=O)(=O)[O-])c5ccc6ccccc6c5C4(C)C)CCC/C2=C\\C=C2\\N(CCCCS(=O)(=O)O)c4ccc5ccccc5c4C2(C)C)cc1)[C@@H]3C (stereo partly drawn)", "Ratio": 2}
{"compound": "CCCCCCOC(C)c1c(C)c2cc3nc(c4c5[nH]c(cc6nc(cc1[nH]2)C(C)=C6CC)c(C)c5C(=O)C4)[C@@H](CCC(=O)NCCCCCCNC(=O)c1cccc(SC2=C(/C=C/C4=[N+](CCCCS(=O)(=O)[O-])c5ccc6ccccc6c5C4(C)C)CCC/C2=C\\C=C2\\N(CCCCS(=O)(=O)O)c4ccc5ccccc5c4C2(C)C)c1)[C@@H]3C (stereo partly drawn)", "Ratio": 2.5}
{"compound": "CCCCCCOC(C)c1c(C)c2cc3nc(c4c5[nH]c(cc6nc(cc1[nH]2)C(C)=C6CC)c(C)c5C(=O)C4)[C@@H](CCC(=O)NCCCCCCNC(=O)c1ccc(SC2=C(/C=C/C4=[N+](CCCCS(=O)(=O)[O-])c5ccc6ccccc6c5C4(C)C)CCC/C2=C\\C=C2\\N(CCCCS(=O)(=O)O)c4ccc5ccccc5c4C2(C)C)cc1)[C@@H]3C (stereo partly drawn)", "Ratio": 2.3}

====

# protocol.notes: Drug uptake in mouse colon 26 cell mitochondria assessed as color overlay at 0.25 to 2 uM after 4 to 24 hrs in dark by mitotracker red dye-based confocal microscopic analysis
# Format: ADME
# condition.parameters: colon 26, 2 µM

{"compound": "CCCCCCOC(C)c1c(C)c2cc3nc(c4c5[nH]c(cc6nc(cc1[nH]2)C(C)=C6CC)c(C)c5C(=O)C4)[C@@H](CCC(=O)NCCNC(=O)c1ccc(SC2=C(/C=C/C4=[N+](CCCCS(=O)(=O)[O-])c5ccc6ccccc6c5C4(C)C)CCC/C2=C\\C=C2\\N(CCCCS(=O)(=O)O)c4ccc5ccccc5c4C2(C)C)cc1)[C@@H]3C (some centres not stated)", "Drug uptake": "Active"}
{"compound": "CCCCCCOC(C)c1c(C)c2cc3nc(c4c5[nH]c(cc6nc(cc1[nH]2)C(C)=C6CC)c(C)c5C(=O)C4)[C@@H](CCC(=O)NCCCCNC(=O)c1ccc(SC2=C(/C=C/C4=[N+](CCCCS(=O)(=O)[O-])c5ccc6ccccc6c5C4(C)C)CCC/C2=C\\C=C2\\N(CCCCS(=O)(=O)O)c4ccc5ccccc5c4C2(C)C)cc1)[C@@H]3C (some centres not stated)", "Drug uptake": "Active"}

====

# protocol.notes: Drug uptake in Balb/c mouse liver implanted with mouse Colon 26 cells at 0.3 umol/kg, iv after 24 hrs by reflectance spectroscopic analysis
# Format: ADME, organism-based
# condition.parameters: in vivo

{"molecule": "CCCCCCOC(C)c1c(C)c2cc3nc(c4c5[nH]c(cc6nc(cc1[nH]2)C(C)=C6CC)c(C)c5C(=O)C4)[C@@H](CCC(=O)NCCNC(=O)c1cccc(SC2=C(/C=C/C4=[N+](CCCCS(=O)(=O)[O-])c5ccc6ccccc6c5C4(C)C)CCC/C2=C\\C=C2\\N(CCCCS(=O)(=O)O)c4ccc5ccccc5c4C2(C)C)c1)[C@@H]3C (stereo partly drawn)", "Drug uptake": "Active"}
{"molecule": "CCCCCCOC(C)c1c(C)c2cc3nc(c4c5[nH]c(cc6nc(cc1[nH]2)C(C)=C6CC)c(C)c5C(=O)C4)[C@@H](CCC(=O)NCCNC(=O)c1ccc(SC2=C(/C=C/C4=[N+](CCCCS(=O)(=O)[O-])c5ccc6ccccc6c5C4(C)C)CCC/C2=C\\C=C2\\N(CCCCS(=O)(=O)O)c4ccc5ccccc5c4C2(C)C)cc1)[C@@H]3C (stereo partly drawn)", "Drug uptake": "Active"}
{"molecule": "CCCCCCOC(C)c1c(C)c2cc3nc(c4c5[nH]c(cc6nc(cc1[nH]2)C(C)=C6CC)c(C)c5C(=O)C4)[C@@H](CCC(=O)NCCCCNC(=O)c1ccc(SC2=C(/C=C/C4=[N+](CCCCS(=O)(=O)[O-])c5ccc6ccccc6c5C4(C)C)CCC/C2=C\\C=C2\\N(CCCCS(=O)(=O)O)c4ccc5ccccc5c4C2(C)C)cc1)[C@@H]3C (stereo partly drawn)", "Drug uptake": "Active"}

====

# protocol.notes: Drug uptake in Balb/c mouse liver implanted with mouse Colon 26 cells at 0.3 umol/kg, iv after 24 hrs by reflectance spectroscopic analysis
# Format: ADME, organism-based
# condition.parameters: in vivo

{"compound": "CCCCCCOC(C)c1c(C)c2cc3nc(c4c5[nH]c(cc6nc(cc1[nH]2)C(C)=C6CC)c(C)c5C(=O)C4)[C@@H](CCC(=O)NCCCCCCNC(=O)c1ccc(SC2=C(/C=C/C4=[N+](CCCCS(=O)(=O)[O-])c5ccc6ccccc6c5C4(C)C)CCC/C2=C\\C=C2\\N(CCCCS(=O)(=O)O)c4ccc5ccccc5c4C2(C)C)cc1)[C@@H]3C (stereo partly drawn)", "Drug uptake": "Active"}
{"compound": "CCCCCCOC(C)c1c(C)c2cc3nc(c4c5[nH]c(cc6nc(cc1[nH]2)C(C)=C6CC)c(C)c5C(=O)C4)[C@@H](CCC(=O)NCCCCCCNC(=O)c1cccc(SC2=C(/C=C/C4=[N+](CCCCS(=O)(=O)[O-])c5ccc6ccccc6c5C4(C)C)CCC/C2=C\\C=C2\\N(CCCCS(=O)(=O)O)c4ccc5ccccc5c4C2(C)C)c1)[C@@H]3C (stereo partly drawn)", "Drug uptake": "Active"}
{"compound": "CCCCCCOC(C)c1c(C)c2cc3nc(c4c5[nH]c(cc6nc(cc1[nH]2)C(C)=C6CC)c(C)c5C(=O)C4)[C@@H](CCC(=O)NCCCCNC(=O)c1cccc(SC2=C(/C=C/C4=[N+](CCCCS(=O)(=O)[O-])c5ccc6ccccc6c5C4(C)C)CCC/C2=C\\C=C2\\N(CCCCS(=O)(=O)O)c4ccc5ccccc5c4C2(C)C)c1)[C@@H]3C (stereo partly drawn)", "Drug uptake": "Active"}
